Data provenance is ChEMBL document CHEMBL1201862.

System: SF-268
experimental.details: NCI tumour cell line growth inhibition, 48 h
Active and inactive are the calls of the source. Rule as the data show it: active = GI50 up to about 1.1 µM and inactive = higher.
Labels: yes (active), no (inactive)

molecule	classification
CC(=O)NC1C(OC(C)C(=O)NC(C)C(=O)NC(CCC(=O)NCCCCCNc2ccc([N+](=O)[O-])c3[nH]c4ccccc4c(=O)c23)C(N)=O)C(O)C(CO)OC1(C)OCc1ccccc1 (centres undefined)	no
CCNC(=S)N/N=C(/C)c1cccc(/C(C)=N\NC(=S)NCC)n1	yes
O=C(c1nc2ccc(Cl)cc2[nH]c1=O)C(O)c1cccc([N+](=O)[O-])c1 (centres undefined)	no
CCOC(=O)c1[nH]c(Br)c(-c2ccc(OC)c(OC)c2)c1Br	yes
COc1ccc2nc3c([N+](=O)[O-])ccc4c3c(c2c1)N=CN4CCN(C)C	no
CNC(=O)Oc1ccc(C(=S)Nc2ccc(Br)cc2)cc1	no
Nc1ncc(Sc2ccccc2C(=O)O)s1	no
C[C@H](CC[C@@H](O)C(C)(C)O)[C@H]1CC[C@@]2(C)[C@@H]3CC=C4[C@@H](CC[C@H](OC5OC(CO)C(O)C(O)C5O)C4(C)C)[C@]3(C)C(=O)C[C@]12C (some centres undefined)	no
CN(C)CCC(O)(c1ccccc1)C(O)(CCN(C)C)c1ccccc1 (centres undefined)	no
